A collection of compounds and their measured pEC50
# Target System: S1P3 (Homo sapiens, UniProt Q99500)
# Construct: host or cells: HEK293 (transient transfection)
# Sequence (P32121 whole entry): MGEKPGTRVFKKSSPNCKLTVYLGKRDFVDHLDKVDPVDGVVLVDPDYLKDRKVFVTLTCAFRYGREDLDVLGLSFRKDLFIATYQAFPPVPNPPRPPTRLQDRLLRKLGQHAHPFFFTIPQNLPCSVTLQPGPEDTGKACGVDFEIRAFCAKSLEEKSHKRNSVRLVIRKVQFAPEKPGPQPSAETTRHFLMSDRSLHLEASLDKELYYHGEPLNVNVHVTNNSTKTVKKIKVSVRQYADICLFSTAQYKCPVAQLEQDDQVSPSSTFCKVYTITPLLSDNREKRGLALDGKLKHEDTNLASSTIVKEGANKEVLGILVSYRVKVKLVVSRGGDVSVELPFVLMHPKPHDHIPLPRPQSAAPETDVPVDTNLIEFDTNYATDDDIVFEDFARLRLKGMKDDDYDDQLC
# Sequence (Q99500 whole entry): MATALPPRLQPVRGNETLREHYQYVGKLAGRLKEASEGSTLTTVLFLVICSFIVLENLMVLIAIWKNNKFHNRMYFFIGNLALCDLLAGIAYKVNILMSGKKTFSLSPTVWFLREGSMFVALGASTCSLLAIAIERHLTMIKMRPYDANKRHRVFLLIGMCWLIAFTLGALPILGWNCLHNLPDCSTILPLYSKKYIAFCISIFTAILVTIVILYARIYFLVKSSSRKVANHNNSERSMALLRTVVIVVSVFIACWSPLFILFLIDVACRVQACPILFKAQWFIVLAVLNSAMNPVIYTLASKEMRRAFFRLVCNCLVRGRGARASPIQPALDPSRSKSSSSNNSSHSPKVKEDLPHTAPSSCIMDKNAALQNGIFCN
# Experiment Description: S1P3 Tango β-arrestin recruitment assay in HEK293 cells (Assay 5)
# Type: cell-based
# Condition Description: read-out: Assay 5 EC50
pEC50: −log10 of the molar value.

Solved entries:
Query: Give the value of pEC50 reported for the following: Cc1cc(-c2nnc(-c3cc(F)c(OC[C@@H](N)[C@@H](C)O)cc3Cl)s2)cnc1NC(C)C [Entry 67]
Reply: < 5.00

Query: Give the value of pEC50 reported for the following: CC(C)Nc1ccc(-c2nnc(-c3cc(F)c(OC[C@H](N)[C@@H](C)O)cc3Cl)s2)cn1 [Entry 46]
Reply: < 5.00

Query: Give the value of pEC50 reported for the following: CC(C)Oc1ccc(-c2nnc(-c3cc(F)c(OC[C@@H](N)[C@@H](C)O)cc3Cl)s2)cc1Cl [Entry 74]
Reply: < 6.60

Query: Give the value of pEC50 reported for the following: CC(C)Oc1ccc(-c2nnc(-c3cc(F)c(OC[C@H](N)[C@@H](C)O)cc3Cl)s2)cc1Cl [Entry 73]
Reply: < 5.00

Query: Give the value of pEC50 reported for the following: Cc1cc(-c2nnc(-c3cc(F)c(OC[C@@H](N)[C@@H](C)O)cc3Cl)s2)cc(NC(C)C)n1 [Entry 97]
Reply: < 6.60

Further cases:
Query: Give the value of pEC50 reported for the following: CC(C)Oc1ccc(-c2nnc(-c3cc(F)c(OC[C@H](N)[C@@H](C)O)cc3Cl)s2)cc1C#N [Entry 82]
Reply: < 5.00

Query: Give the value of pEC50 reported for the following: CC(C)Nc1ccc(-c2nnc(-c3cc(F)c(OC[C@@H](N)[C@H](C)O)cc3Cl)s2)cn1 [Entry 59]
Reply: < 5.00
